Target: FcγIIIA Receptor on the effector cells (human) (UniProt P08637)
Sequence (P08637 17-254): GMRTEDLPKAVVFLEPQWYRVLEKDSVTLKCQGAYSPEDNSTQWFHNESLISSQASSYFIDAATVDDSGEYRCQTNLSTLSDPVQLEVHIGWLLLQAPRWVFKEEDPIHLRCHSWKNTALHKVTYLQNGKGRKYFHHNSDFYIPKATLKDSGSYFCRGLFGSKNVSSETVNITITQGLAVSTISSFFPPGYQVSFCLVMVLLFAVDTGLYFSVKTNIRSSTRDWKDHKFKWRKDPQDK
Assay: cell-based or functional assay
Record form. Attribute: EC50 (ADCC, Raji targets, KILR CD16a effector cells). Fill in for each entry.
Give bare numbers, in ng/mL.

1) RITUXAN (rituximab) (antibody) ... 5.46

# per-item lookup of EC50 (ADCC, Raji targets, KILR CD16a effector cells); items listed below
1. GAZYVA (obinutuzumab) (antibody)
2. OCREVUS (ocrelizumab) (antibody)
3. ARZERRA (ofatumumab) (antibody)

Result:
0.00658
0.0608
0.0741

Values from patent US11884740
